In this section we review reported pIC50 values for a set of compounds.
# target: recombinant human Mcl-1 (residues 171-327) / Bim interaction (Homo sapiens (Human))
# Sequence (Q07820 171-327): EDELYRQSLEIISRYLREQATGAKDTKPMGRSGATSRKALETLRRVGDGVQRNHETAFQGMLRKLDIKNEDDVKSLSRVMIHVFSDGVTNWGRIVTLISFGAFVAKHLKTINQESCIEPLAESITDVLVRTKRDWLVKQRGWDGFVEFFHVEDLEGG
# assay: biochemical
# Type: binding
# condition summary: TR-FRET, Mcl-1(171-327) / biotin-Bim (51-76); read-out: Mcl-1 HTRF IC50
Notebook: values listed as pIC50 are -log10 of the concentration (mol/L).

Sample answers from the record:
INSERT INTO results (compound, readout, value_reported) VALUES
  ('CO[C@@]1(CC(=O)c2ccccc2)/C=C/C[C@H](C)[C@@H](C)S(=O)(=O)NC(=O)c2ccc3c(c2)N(C[C@@H]2CC[C@H]21)C[C@@]1(CCCc2cc(Cl)ccc21)CO3 [Example 100458]', 'pIC50', 9.68),
  ('C=CCOC[C@]1(O)/C=C/C[C@H](C)[C@@H](C)S(=O)(=O)NC(=O)c2ccc3c(c2)N(C[C@@H]2CC[C@H]21)C[C@@]1(CCCc2cc(Cl)ccc21)CO3 (single isomer, unassigned) [Example 100496]', 'pIC50', 8.57),
  ('C[C@@H]1[C@@H](C)C/C=C/[C@](O)(c2ccncc2F)[C@@H]2CC[C@H]2CN2C[C@@]3(CCCc4cc(Cl)ccc43)COc3ccc(cc32)C(=O)NS1(=O)=O [Example 100368]', 'pIC50', 9.42);

# next compound below
// returns reported pIC50 for input CO[C@]1(CCN2CCOCC2)/C=C/C[C@H](C)[C@@H](C)S(=O)(=O)NC(=O)c2ccc3c(c2)N(C[C@@H]2CC[C@H]21)C[C@@]1(CCCc2cc(Cl)ccc21)CO3 [Example 100365]
9.59

Sourced from patent US10821115B2
